method notes: chemical genetic growth profiling, strain panel (AID 1159580);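 also: tested at 20 µM; growth read once vehicle control cultures reached saturation at 30 °C; lower values mean less growth of the strain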
test parameters: S. cerevisiae deletion strains, growth OD, strain wtn01, hits give low values
Screen size: about 5,500 compounds; about 2,000 (36%) were called active. Not shown: some 18% with an inconclusive outcome. The list shows a part of the results.
Consider the cut-off 1. If the recorded normalized growth is strictly smaller, the label is yes; if not, the label is no.

C/C=C(/C)C(=O)O[C@@H]1Cc2c(ccc3ccc(=O)oc23)OC1(C)C	no
CC[C@@]1(O)C(=O)OCc2c1cc1n(c2=O)Cc2cc3ccccc3nc2-1	yes
C/C=C(\C)C(=O)O[C@@H]1c2c(ccc3ccc(=O)oc23)OC(C)(C)[C@@H]1OC(C)=O	no

Would you kindly look at the next entry?
Prompt: I'd appreciate it if you could check whether "NCCCN" has normalized growth smaller than 1.
Completion: yes
